Reference source for all entries: paper PMC3933693

Molecular target: mGPDH (Rattus norvegicus)
Construct: Activity of mGPDH in frozen-thawed skeletal muscle mitochondria was measured; from tissue; host or cells: skeletal muscle mitochondria
Sequence (P35571 43-727): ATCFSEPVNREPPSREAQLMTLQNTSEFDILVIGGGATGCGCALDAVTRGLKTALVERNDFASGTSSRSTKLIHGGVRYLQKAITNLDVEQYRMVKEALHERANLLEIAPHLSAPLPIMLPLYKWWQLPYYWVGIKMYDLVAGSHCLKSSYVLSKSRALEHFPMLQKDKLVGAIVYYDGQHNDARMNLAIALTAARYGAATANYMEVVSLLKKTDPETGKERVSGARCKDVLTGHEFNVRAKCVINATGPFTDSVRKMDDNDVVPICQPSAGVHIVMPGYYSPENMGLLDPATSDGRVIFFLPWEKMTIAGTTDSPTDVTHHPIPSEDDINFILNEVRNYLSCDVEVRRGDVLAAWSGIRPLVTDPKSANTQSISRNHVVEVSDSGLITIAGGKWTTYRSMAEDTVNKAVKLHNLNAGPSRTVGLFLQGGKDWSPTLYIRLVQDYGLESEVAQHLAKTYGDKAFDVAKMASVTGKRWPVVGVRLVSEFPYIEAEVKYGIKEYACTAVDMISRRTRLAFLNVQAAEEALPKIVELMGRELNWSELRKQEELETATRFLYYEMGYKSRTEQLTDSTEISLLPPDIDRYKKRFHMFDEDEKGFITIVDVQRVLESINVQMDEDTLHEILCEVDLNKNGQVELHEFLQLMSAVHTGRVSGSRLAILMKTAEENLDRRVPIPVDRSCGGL
Assay: Superoxide/H2O2 production by mGPDH in isolated skeletal muscle mitochondria (Amplex UltraRed)
Type: biochemical
Conditions: Fig. 4 structure/activity microplate assay, 0.08–80 µM, estimated, means of two replicates; read-out: mGPDH H2O2 production IC50
EXPERIMENTAL READOUT: pIC50
Remember, pIC50 is on a log scale: it is -log10 of the molar concentration.

// sample "Cc1ccc2[nH]c(-c3ccc(NC(=O)CCC(=O)O)cc3)nc2c1" , its pIC50 was 5.30

# pIC50 (compound: "O=C(Nc1ccc(-c2nc3ccccc3[nH]2)cc1)c1ccco1" ) is 4.10

What the record says about "O=C(O)CCC(=O)Nc1ccc(-c2nc3ccccc3o2)cc1" : pIC50 is 4.70

Noted for "O=C(O)CCC(=O)Nc1ccc(-c2nc3cc4ccccc4cc3[nH]2)cc1" : its pIC50 reads 6.15

Noted for "O=C(O)CCC(=O)Nc1ccc(-c2nc3ccccc3[nH]2)cc1" : its pIC50 reads 5.10

Just so you know, measured pIC50 for "O=C(O)CCC(=O)Nc1cccc(-c2nc3ccccc3[nH]2)c1" came out at 4.30

"O=C(O)CCC(=O)Nc1ccc(-c2nc3cc(C(=O)c4ccccc4)ccc3[nH]2)cc1" yielded pIC50 of 5.52

Reported pIC50 for "O=C(O)CCC(=O)Nc1ccc(-c2nc3ccccc3s2)cc1" was 4.82
